# TARGET: SfurOBP2 (Sogatella furcifera, UniProt V5T759)
# Sequence (V5T759 entry or part of it): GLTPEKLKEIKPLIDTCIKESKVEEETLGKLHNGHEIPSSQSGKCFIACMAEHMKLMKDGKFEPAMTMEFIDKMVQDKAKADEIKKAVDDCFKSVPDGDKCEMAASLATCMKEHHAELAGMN
# MEASUREMENT NOTES: biochemical
# Format: binding
# DETAILS: ligand concentration 20 (unit not given), replicate column 2 of 3
Response field label takes yes (1) when Fluorescence competitive binding assay, OBP2 (raw fluorescence reading) is strictly below 20000 and no (0) in all other cases.

The examples below pair each entry with its known result.
> print(dat)
                                   compound                                    target  qualitative.label
1  CC(C)COC(=O)CCCCC(=O)OCC(C)C [DA(diisobutyl adipate)]  SfurOBP2 (Sogatella furcifera, UniProt V5T759)            yes (1)
2          Cc1cc(C(C)(C)C)c(O)c(C(C)(C)C)c1  SfurOBP2 (Sogatella furcifera, UniProt V5T759)            yes (1)
3                            c1ccc2ccccc2c1  SfurOBP2 (Sogatella furcifera, UniProt V5T759)            yes (1)
4                             CCCCCCCCCCCCO  SfurOBP2 (Sogatella furcifera, UniProt V5T759)            yes (1)
5                               O=Cc1ccccc1  SfurOBP2 (Sogatella furcifera, UniProt V5T759)            yes (1)

Data request: Please let me know if `C[C@@H]1CC[C@H]2C(C)(C)[C@H]3C[C@@]12CC[C@@]3(C)O` shows Fluorescence competitive binding assay, OBP2 (raw fluorescence reading) below 20000.
Data returned: no (0)

Data request: Report whether reported Fluorescence competitive binding assay, OBP2 (raw fluorescence reading) is lower than 20000 (strictly) for CCCCCCCCCCCCCCCC(=O)OC [MH(methyl hexadecanoate)]
Data returned: no (0)

Data request: Criterion: Fluorescence competitive binding assay, OBP2 (raw fluorescence reading) strictly below 20000. Is it met by `CCCCCCCCCCCCC=O` ?
Data returned: yes (1)

Data request: Consider `CCCCCCCCC=O` . Does its Fluorescence competitive binding assay, OBP2 (raw fluorescence reading) lie strictly below 20000?
Data returned: yes (1)

Data request: Decide: Fluorescence competitive binding assay, OBP2 (raw fluorescence reading) of `COC(=O)c1ccccc1` strictly below 20000?
Data returned: yes (1)

* * *

Listing of entries alongside the reported Fluorescence competitive binding assay, OBP2 (raw fluorescence reading).
# TARGET: SfurOBP2 (Sogatella furcifera, UniProt V5T759)
# MEASUREMENT NOTES: biochemical
# Type: binding
# DETAILS: ligand concentration 4 (unit not given), replicate column 2 of 3
Just the number, please, no unit attached.

Answered examples (10):
> print(dat)
                                    molecule  number
 1  C=CC(C)(O)CCC=C(C)CCC=C(C)C (mixture of isomers)   15827
 2                                CCCCCCCC=O   19771
 3  CC(C)COC(=O)CCCCC(=O)OCC(C)C [DA(diisobutyl adipate)]   17998
 4     C=C1CC/C=C(\C)CC[C@@H]2[C@@H]1CC2(C)C   12315
 5                 CC1=CC[C@@H](C(C)(C)O)CC1   18924
 6    C=CC(C)(O)CCC=C(C)C (stereo not drawn)   21526
 7                                 OC1CCCCC1   17312
 8  C[C@@H]1CC[C@H]2C(C)(C)[C@H]3C[C@@]12CC[C@@]3(C)O   27496
 9                     O=C(c1ccccc1)c1ccccc1   17125
10                          Cc1ccc(C(C)C)cc1   16662

Data request: Determine from records and report Fluorescence competitive binding assay, OBP2 (raw fluorescence reading) for `CCCCCCCCCCC`
Data returned: 13783

Data request: Given `CCCCCCCCCCCCCCCCCC` , respond with its Fluorescence competitive binding assay, OBP2 (raw fluorescence reading).
Data returned: 21034
